test system: iPSC-fRPE cells; experiment: Compound screen for RPE pigmentation in iPSC-fRPE cells (light absorbance at 510 nm); assay type: cell-based, human; details: test compound 5 μM in 0.1% DMSO, 32 days, absorbance at 510 nm, relative to plate internal DMSO controls (control = 1)
The entries below are paired with their reported Relative Pigmentation.

COMPOUND	Relative Pigmentation
O=C(Nc1ccc(-c2cnco2)c(Cl)c1)C1Cc2ccccc2CO1 (racemic)	1.66
O=C(Nc1ccc(-c2cnco2)c(Cl)c1)C1COc2ccccc2C1 (single isomer, unassigned; (-)) [Compound 1]	3.05
O=C(Nc1ccc(-c2cnco2)c(Cl)c1)C1CCOc2ccccc21 (racemic)	2.65
O=C(Nc1ccc(-c2cnco2)c(Cl)c1)C1CCc2ccccc21 (racemic)	1.86
O=C(Nc1ccc(-c2cnco2)c(Cl)c1)C1COc2ccccc2C1 (single isomer, unassigned; (+)) [Compound 2]	1.68
O=C(Nc1ccc(-c2cnco2)c(Cl)c1)C1Cc2ccccc2C1	2.92

Reference for the values: patent US12630542B2
